Tested on: UACC-62 melanoma
Experiment: NCI tumour cell line growth inhibition, 48 h
Could you please report measured TGI for the items listed next?

Worked set:
compound: CC1=C(C(=O)Nc2ccccc2C)C(/C=C/c2ccccc2)C(C(=O)Nc2ccccc2C)=C(C)N1
endpointValue: > 100 µM
--
compound: OC(CN1CC1)C(O)CN1CC1 (stereo not drawn)
endpointValue: > 50 µg/mL

Switching to the query record.
Look up TGI: O=C(c1cc2ccccc2cc1O)N1CCCCC1 > 100 µM

====

Test system: SK-MEL-2 melanoma
Assay: NCI tumour cell line growth inhibition, 48 h
reportedEndpoint: TGI (µM)
Answers are plain numbers, in µM.

compound: O=S1(=O)NCCCN1CCNc1nccc(-c2c(-c3cccc(O)c3)nc3sccn23)n1
TGI (µM): 9.66
--
compound: O=C(c1cc2ccccc2cc1O)N1CCCCC1
TGI (µM): 46.5
--
compound: COC(=O)[C@]12CC[C@H]3CN(C(=O)OCc4ccccc4)[C@H]([C@H]31)[C@H](c1ccco1)N2S(=O)(=O)c1ccc(C)cc1
TGI (µM): 49.3
--
compound: O=C1C(Cl)=C(Nc2ccccc2)C(=O)c2ccccc21
TGI (µM): 3.69
--
compound: Nc1c(-c2cccc3ccccc23)c2ccc([N+](=O)[O-])cc2c(=O)n1-c1nc2ccccc2s1
TGI (µM): 19.2

Each of the following entries comes with a recorded value; kindly state TGI for each.
1. C=C1CC2(OC1=O)C(=O)N(CCCN1C(=O)C3(CC(=C)C(=O)O3)c3ccccc31)c1ccccc12 (centres undefined)
2. CN(C)c1ccc(C=C2N=C(c3ccccc3)N(c3cc(C(=O)c4ccccc4)ccc3N3C(=O)/C(=C/c4ccc(N(C)C)cc4)N=C3c3ccccc3)C2=O)cc1
3. COc1ccc2nc3cc(Cl)ccc3c(NCCCNCCCNc3c4ccc(Cl)cc4nc4ccc(OC)cc34)c2c1
4. COc1ccc(C(OCC2OC(n3cc(C)c(=O)[nH]c3=O)CC2n2cc(Cn3cc(F)c(=O)[nH]c3=O)nn2)(c2ccccc2)c2ccccc2)cc1 (centres undefined)

[32.3, 21.4, 0.15, 24.8]

Each of the following entries comes with a recorded value; kindly state TGI for each.
1. Cc1ncc(C(=O)Nc2ccc(CN3CCN(C)CC3)c(C(F)(F)F)c2)cc1C#Cc1cnc(NC2CC2)c2ncccc12
2. O=C(c1ccc2ccccc2c1)c1c(C(F)(F)F)n([O-])c2ccc(Cl)cc2[n+]1=O
3. CC1CC[C@@]2(OC1)OC1C[C@H]3[C@@H]4CC[C@H]5CC(OC6OC(CO)C(OC7OC(CO)C(O)C(O)C7OC7OC(CO)C(O)C(O)C7O)C(O)C6O)CCC5(C)[C@H]4CCC3(C)C1[C@@H]2C (some centres undefined)

1. 5.54
2. 3.2
3. 8.05

Data provenance is PubChem BioAssay (NCI).
